# System: EKVX
# protocol_summary: NCI tumour cell line growth inhibition, 48 h
Active and inactive are the calls of the source. No stated cut-off is given here; in the data, active = GI50 up to about 1.1 µM and inactive = higher.
compounds and their reported GI50

CCc1cc(CCC(=O)Nc2c(C)cccc2C)n[nH]1    > 100 µM (inactive)

Quote GI50 reported for CC(=O)[C@@]1(C)CC2(CCN(C)CC2)OC1C (stereo partly specified) please.
> 100 µM (inactive)

Quote GI50 reported for N=C(N)NCCCC(NCc1c2ccccc2[n+]([O-])c2ccccc12)C(=O)O (stereo unspecified) please.
> 100 µM (inactive)

Quote GI50 reported for `O=C(N/C(=C\c1ccc(/C=C(\NC(=O)c2ccccc2)c2nc3cc(Cl)ccc3[nH]2)cc1)c1nc2cc(Cl)ccc2[nH]1)c1ccccc1` please.
29 µM (inactive)

Quote GI50 reported for Cc1cccc(/N=C2\NC(=O)C(CC(=O)Nc3ccc(C)cc3C)S2)c1 (stereo unspecified) please.
47.1 µM (inactive)

Quote GI50 reported for CCCCC(=C=C(C)CO)C1CCCN1C(=O)OC(C)(C)C (stereo unspecified) please.
19.7 µM (inactive)

Quote GI50 reported for `O=C(CSc1nnc[nH]1)C[P+](c1ccccc1)(c1ccccc1)c1ccccc1` please.
> 100 µM (inactive)

Quote GI50 reported for `CC(=O)Oc1ccc(C)c2c1[C@H]1CC[C@]3(C)[C@@H](OC(C)=O)CC[C@H]3[C@@H]1CC2` please.
15.5 µM (inactive)

Quote GI50 reported for `CCOC(=O)/C=C1\c2ccccc2C(=O)N1CC(=O)OCC` please.
> 100 µM (inactive)

Quote GI50 reported for `N#Cc1cc2c(cc1Cl)Sc1nnc(Nc3ccccc3)n1S2(=O)=O` please.
2.77 µM (inactive)

Quote GI50 reported for `c1ccc2c3ccn4ccc5c6ccccc6[nH]c5c4c-3nc2c1` please.
1.02 µM (active)

Quote GI50 reported for `CC1=C(c2cc(C(=O)Nc3ccc(Cl)c(Cl)c3)nc(N)n2)Sc2ccccc2N1` please.
98.6 µM (inactive)

Quote GI50 reported for `Cc1ccc(-c2cc(-c3c(C)nn(C)c(=O)c3N)n[nH]2)cc1` please.
83 µM (inactive)

Quote GI50 reported for CCOC(=O)c1cc(C2CCN(Cc3ccccc3)C2=O)c(C(=O)/C=C(/C)N)[nH]1 (stereo unspecified) please.
> 100 µM (inactive)

Quote GI50 reported for `CNC(=O)Nn1c(SC)nc2ccccc21` please.
> 100 µM (inactive)
